Hey, just so you know, these numbers are from patent US20110218360A1.

Conditions: particle size distribution after micronisation
Counter-ions that a name gives are not always drawn.
# D90 per entry

{"columns": ["COMPOUND", "D90, μm"],
 "data": [
  ["C#CCN[C@@H]1CCc2ccccc21 [Example 27, Rasagiline mesylate]", 5.517],
  ["C#CCN[C@@H]1CCc2ccccc21 [Example 32, Rasagiline mesylate]", 6.540],
  ["C#CCN[C@@H]1CCc2ccccc21 [Example 28, Rasagiline mesylate]", 3.219],
  ["C#CCN[C@@H]1CCc2ccccc21 [Example 31, Rasagiline mesylate]", 608.570],
  ["C#CCN[C@@H]1CCc2ccccc21 [Example 30, Rasagiline mesylate]", 4.981]
]}

----------
Conditions: particle size distribution after micronisation
Where a name gives a salt, the structure may show the parent alone.
REPORTED_METRIC: D10 (μm)

{"columns": ["COMPOUND", "VALUE_UNITS", "RESULT"],
 "data": [
  ["C#CCN[C@@H]1CCc2ccccc21 [Example 31, Rasagiline mesylate]", "μm", 2.404],
  ["C#CCN[C@@H]1CCc2ccccc21 [Example 32, Rasagiline mesylate]", "μm", 0.991],
  ["C#CCN[C@@H]1CCc2ccccc21 [Example 28, Rasagiline mesylate]", "μm", 0.663],
  ["C#CCN[C@@H]1CCc2ccccc21 [Example 27, Rasagiline mesylate]", "μm", 0.779],
  ["C#CCN[C@@H]1CCc2ccccc21 [Example 30, Rasagiline mesylate]", "μm", 0.761]
]}
